Value source: PubChem BioAssay (NCI)

- System: U251 CNS
// allowed return values: true (1) for active, false (0) for inactive

Take a look at these entries with their results.
Test call for this molecule, please: C=C1C(O)C2CC(C)(C)C(=O)C2=C(CC(C)C)C12CC2 (centres undefined)
false (0)

Field: outcome | Entry: O=C(CCl)Nc1ccc(Cc2ccc(NC(=O)CCl)cc2)cc1
false (0)

Hi team, can someone confirm the assay call for O=c1[nH]c2ccccc2n1C1CCN(CCOc2ccccc2)CC1 ?
false (0)

Hi team, can someone confirm the assay call for CC(=O)c1ccc(Oc2c3ccccc3nc3occc23)cc1 ?
false (0)

Continuing:
Which result was noted for this molecule in the test: Cc1ccc(NC2=CC(=O)C(=O)c3ccccc32)cc1
false (0)

Would you mind telling me which call this test gave C/C=C(\C)C(=O)O[C@@H]1C=CC(=O)O[C@H]1CNC(=O)[C@H](C)O ?
false (0)

I would be grateful if you could indicate the recorded call for COc1ccc(-c2nnc(Nc3nc(O)c(C4=c5cc(Br)ccc5=NC4=O)s3)o2)cc1 .
false (0)

====

- Test system: DU-145 prostate
- procedureSummary: NCI tumour cell line growth inhibition, 48 h
recordedMetric: TGI (µM)
State just the number; it will be interpreted in µM.

Retrieve TGI on DU-145 prostate; query CCOP(=O)(OCC)C(NC(c1ccccc1)c1ccccc1)c1ccc(C(C)C)cc1 (stereo not given)
25.5

Please report TGI with DU-145 prostate for item Clc1ccc(N2N=C(c3cccc(Nc4ccncc4)c3)CC2c2ccc(Br)cc2)cc1 (stereo not given) .
3.25

// output TGI; input CN(C)C/C=C/C(=O)Nc1cc2c(Nc3cccc(Cl)c3F)ncnc2cc1OCCOC(F)F ; system DU-145 prostate
10.7

---
Provide the reported TGI (system: DU-145 prostate) for CCOC(=O)CCc1ccc(NC(=O)/C=C/c2ccc([N+](=O)[O-])o2)cc1
6.39

====

- Test system: HT29 colon
- procedureSummary: NCI tumour cell line growth inhibition, 48 h
// TGI lookup, one value per entry
The answer is to be given in µM; state only the numeric part.

Solved entries:
Identify measured TGI associated with CCOC(OC1=C(C#N)CCCC1)C(CC)[Se]c1ccccc1[N+](=O)[O-] (stereo not given)
31.4

Quick one: give measured TGI for CC[C@]1(Cc2ccc(OC)c(OC)c2)C=[N+]([O-])O[C@H](OCc2ccccc2)[C@@H]1OC(C)=O
79.9

Using the record for COc1cccc(/C=C/C(=O)N2CC(CCl)c3c2cc(N)c2ccccc32)c1 (stereo not given) , state its measured TGI.
20

Proceed to the following item.
Please supply the value of reported TGI for the item O=C(c1ccc(Nc2nccc(NCCCCNc3ccnc4cc(Cl)ccc34)n2)cc1)N1CCCCC1
6.57

====

- Tested on: OVCAR-5 ovarian
- procedureSummary: NCI tumour cell line growth inhibition, 48 h
recordedMetric: TGI

Hello, please tell me recorded TGI for this one: COC(=O)/C(C#N)=C/c1cc(C(C)(C)C)c(O)c(C(C)(C)C)c1
8.51 µM

Please report TGI for the following molecule: CC(C)CC1NC(=O)CCC(NC(=O)C(Cc2ccc(O)cc2)NC(=O)OCc2ccccc2)C(=O)NC(Cc2ccccc2)C(=O)NC(Cc2ccccc2)NC1=O (centres undefined)
> 100 µM

Complete the entry with TGI for O=C(O)c1[nH]c2c([N+](=O)[O-])cc([N+](=O)[O-])cc2c1C(=O)O
> 100 µM

Specify TGI for COc1ccc(NC(=O)c2cccc(C3CCc4c(cc(OC)c(OC)c4OC)O3)c2)cc1 (centres undefined) and stop.
> 100 µM

Tell me its TGI given COc1cccc(/C=C/C(=O)N2CC(CCl)c3c2cc(N)c2ccccc32)c1 (centres undefined) as the entry.
1.5 µM

Return value of TGI for input O=C1C2C3C=C4c5ccccc5N(c5ccccc5)C4([C@@H]2C(=O)N1c1ccc(F)cc1)[C@H]1C(=O)N(c2ccc(F)cc2)C(=O)[C@@H]31 (some centres undefined) , no commentary.
> 100 µM

Continuing:
Report measured TGI; entry is COC1(C)CNCC(C)(C)NC(=O)C(C)(OC)CNCC(C)(C)NC1=O (centres undefined)
> 100 µM

Please supply the value of reported TGI for the item NC(=O)NC(=O)c1cccc(NC(=O)CCl)c1
9.49 µM

Note TGI for the molecule shown: N#CCCN(CCC#N)c1ccc(/C=C(/NC(=O)Nc2ccccc2Cl)NC(=O)c2cc([N+](=O)[O-])ccc2Cl)cc1
> 100 µM

====

- Tested on: OVCAR-5 ovarian
- procedureSummary: NCI tumour cell line growth inhibition, 48 h
// TGI lookup, one value per entry

The following compounds have reported results that may help.
Return TGI (reported value) for this compound: Cc1ccc(O)c(C(c2cc(C)ccc2O)c2cc([N+](=O)[O-])ccc2O)c1
28.8 µM

Given the compound C[C@H]1S[C@H](c2c(F)cccc2F)n2c1nc1ccccc12 , write its reported TGI.
> 100 µM

Note down TGI recorded for CCCCCC(/C=C/c1ncccc1OCCCCCC(=O)O)=N\NC1=NCCN1
> 100 µM

Please give the documented TGI of COc1ccc(C2=NN(C(=O)c3ccc(Cl)cc3)C(O)(c3cc(F)c(Cl)cc3Cl)C2)cc1 (stereo unspecified)
> 100 µM

State its TGI: COc1ccc(/C=C/c2nc(=S)[nH][nH]2)cc1OC
> 100 µM

Give reported TGI value for CC(C)(C)OC(=O)C1/C(=C/CBr)CN1C(=O)OC(C)(C)C (stereo unspecified)
35.2 µM

For CCCCNCCCCCNc1cc(OC)cc2cccnc12 , write its TGI.
30.9 µM

# return recorded TGI for input CC[Si](CC)(CC)OC1[C@@H](O[Si](CC)(CC)CC)[C@@H](CNC(=O)NC)O[C@H]1n1cnc2c(NC(=O)Nc3ccccc3)ncnc21 (stereo partly specified)
62.1 µM

# input for lookup
Give me measured TGI, please, for this compound: O=C1c2ccccc2C(=O)c2sc(Nc3ccc([N+](=O)[O-])cc3)nc21
29.8 µM

====

- Tested on: IGROV1 ovarian
- procedureSummary: NCI tumour cell line growth inhibition, 48 h
Measured TGI, listed per entry for reference.

Read off the recorded TGI for Cc1cn2c(/C=C3\C(=O)N(C)c4ccc(Cl)cc43)c(C)nc2s1
> 100 µM

Return TGI (reported value) for this compound: O=C(Nc1ccc(Cl)cc1)N1CCN(c2ccc3nncn3n2)CC1
> 100 µM

// fetch TGI given entry CN(C)CCNC(=O)c1cccc2c1nc(-c1ccncc1)c1ccccc12
20.1 µM

Fill in TGI for record CCC(C(=O)[C@@H](C)[C@@H](O)[C@H](C)[C@@H]1O[C@@H]([C@@H](CC)C(=O)ONC(=O)c2ccccc2)CC[C@@H]1C)[C@H]1O[C@]2(C=CC(=O)[C@]3(CC[C@@](C)([C@H]4CC[C@](O)(CC)[C@H](C)O4)O3)O2)[C@H](C)C[C@@H]1C (stereo not given in full)
0.631 µM

New cases:
Item N#CCC(=O)Nc1ccccc1O : provide TGI
> 100 µM

State its TGI: O=C(O)c1[nH]c2c([N+](=O)[O-])cc([N+](=O)[O-])cc2c1C(=O)O
> 100 µM

Item O=c1[nH]c2ccccc2n1C1CCN(CCOc2ccccc2)CC1 : provide TGI
> 100 µM

Using the record for CCOC(=O)/C(=C\c1c(C)[nH]c2ccccc12)P(=O)(OCC)OCC , state its measured TGI.
> 100 µM

Name the recorded TGI of the compound listed here: S=C1Cc2c(-c3ccccc3)cc(-c3ccc(Cl)cc3)nc2-c2ccccc2N1
4.36 µM

Return TGI for the following compound: C/C(=N\NC(=S)N1CCN(c2ccccn2)CC1)c1cccc2cccnc12
> 100 µM

Hello, please tell me recorded TGI for this one: COc1ccc2[nH]c3c(O)c(-c4c(C)cc5c([nH]c6ccc(OC)cc65)c4O)c(C)cc3c2c1
8.04 µM

For the compound Cn1c(=O)[nH]c2c(c1=O)C(=O)CN2 , give its measured TGI value.
> 100 µM

Answer with the recorded TGI for the compound listed here: CC(=N/NC(N)=S)/C(C)=N/NC(N)=S
> 100 µM

Retrieve TGI measured for COC(=O)[C@H](C)N(C)C(=O)[C@H](C)N1[C@@H](c2ccccc2)COC1(C)C and print it.
> 100 µM

Using the record for Cc1ccc2c(c1)CC1(C2)Cc2ccc(C)cc2C1=O (stereo not given) , state its measured TGI.
> 100 µM

Input CC(C)(C)NC(=S)N/N=C/c1ccccn1 , output reported TGI.
> 100 µM

Give the reported value of TGI for this record: N[C@H]1CCN(c2c(F)cc3c(=O)c(C(=O)O)cn4c3c2Oc2c-4ccc3c2ccc2ccccc23)C1
> 48.8 µM

====

Form field: GI50 (one value per entry).
- Tested on: RXF 393 renal
- procedureSummary: NCI tumour cell line growth inhibition, 48 h

Using known records, supply GI50 for C[C@@H](Oc1cc(-c2cnn(C3CCNCC3)c2)cnc1N)c1c(Cl)cc(F)cc1Cl
1.5 µM

Tell us which GI50 value is on record for COc1ccc2c(c1)C(=O)c1c-2n(CCCCl)c(=O)c2cc(N)ccc12
> 57.3 µM

// Input: COc1cccc(-c2nn(-c3ccccc3)cc2-c2ccnc(NCCCNS(=O)(=O)c3ccc(C(F)(F)F)cc3)c2)c1 . Output its GI50 only.
3.01 µM

Return GI50 (reported value) for this molecule: Cc1cc(OCc2nn(CN3CCN(C)CC3)c(=S)n2/N=C/c2ccc(F)cc2)ccc1Cl
17.5 µM

Specify reported GI50 for the molecule shown: C1=C\CCCCN2CC[C@H]3[C@H](CCCC/C=C\CCCN4C[C@@H](CCCCC/1)C[C@@H]3C4)C2
2.72 µM

Quote GI50 reported for O=C(Nc1ccc(Cl)cc1)N1CCN(c2ccc3nncn3n2)CC1 please.
> 100 µM

Provide only the value of recorded GI50 for CCN(CC)CCCNc1cc(OC)c(OC)c2cccnc12
19.1 µM

Provide measured GI50 value, entry: CCC(=C(c1ccc(OCCN2CCCC2)cc1)c1ccc(OCCN2CCCC2)cc1)c1ccc(Cl)cc1
0.545 µM

---
Find the measured GI50 of CC(=O)[CH-]C(=O)c1ccccc1.CC(=O)[CH-]C(=O)c1ccccc1.CC(=O)[CH-]C(=O)c1ccccc1.[Br-].[Zr+4] and report it.
> 100 µM

Give a short answer stating reported GI50 for Nc1cc(N)c2nc(-c3ccccc3)c(NCc3ccc(Cl)c(Cl)c3)nc2c1 .
3.06 µM

Report GI50 for Cn1cc(-c2nc(-c3cn(C)c4ncccc34)cs2)c2ccccc21
1.53 µM

State its GI50 for this molecule: Nc1nc(N)c(-c2ccc(Cl)c(Cl)c2)c(CP(Cl)(Cl)(Cl)Br)n1
18.1 µM
